Value source: patent US8546420B2

tested-system: HCV NS5B polymerase (Hepatitis C virus genotype 1b)
Construct: A soluble C-terminal 21-amino acid truncated NS5B enzyme form; polyhistidine (C); made in house; host or cells: Escherichia coli
assay-info: HCV NS5B Polymerase Inhibition Assay
Format: biochemical
Text: A chemically synthesized 75-mer version, designated DCoH75, whose sequence matches the 3′-end of D-RNA, and DCoH75ddC, where the 3′-terminal cytidine of DCoH75 is replaced by dideoxycytidine, were used for assaying the NS5B enzyme activity as described in Ferrari et al., 12th International Symposium on HCV and Related Viruses, P-306 (2005). […] Polynucleotide synthesis was monitored by the incorporation of radiolabeled CTP. […]
pIC50: −log10 of the molar value.
Consider the following compounds; for each one, report its pIC50.

Nc1cc(Cn2c(C(=O)O)c(-c3ccc[nH]c3=O)c3c4ccccc4ccc32)ccn1 < 7.00
O=C(O)c1c(-c2ccc[nH]c2=O)c2c3ncccc3ccc2n1Cc1ccc(F)cc1F < 7.00
O=C(O)c1c(-c2ccc[nH]c2=O)c2c3c(ccc2n1Cc1cc(F)ccc1F)OCCO3 > 7.60

Take each entry in turn and give its pIC50.
1. CS(=O)(=O)NC(=O)c1cccc(Cn2c(C(=O)NS(C)(=O)=O)c(-c3ccc[nH]c3=O)c3c4ccccc4ccc32)c1
2. CS(=O)(=O)NC(=O)c1c(-c2ccc[nH]c2=O)c2c3c(ccc2n1Cc1cc(F)ccc1F)OCCO3
3. O=C(NS(=O)(=O)C1CC1)c1c(-c2ccc[nH]c2=O)c2c3c(ccc2n1Cc1cc(F)ccc1F)CCCO3
4. CCS(=O)(=O)NC(=O)c1c(-c2ccc[nH]c2=O)c2c3ccccc3ccc2n1Cc1ccnc(N)c1

Result:
7.00 to 7.60
> 7.60
> 7.60
7.00 to 7.60

Take each entry in turn and give its pIC50.
1. CC(C)(C)S(=O)(=O)NC(=O)c1c(-c2ccc[nH]c2=O)c2c3ccccc3ccc2n1Cc1ccnc(N)c1
2. O=C(O)c1c(-c2ccc[nH]c2=O)c2c3c(ccc2n1Cc1ccccc1F)CCCO3
3. Nc1cc(Cn2c(C(=O)O)c(-c3ccccc3F)c3c4ccccc4ccc32)ccn1

Result:
1: 7.00 to 7.60; 2: > 7.60; 3: < 7.00

* * *

Consider the following compounds; for each one, report its pIC50.
tested-system: HCV NS5B polymerase (Hepatitis C virus genotype 1b, UniProt P26663)
Construct: A soluble C-terminal 21-amino acid truncated NS5B enzyme form; polyhistidine (C)
Sequence (P26663 2420-2989): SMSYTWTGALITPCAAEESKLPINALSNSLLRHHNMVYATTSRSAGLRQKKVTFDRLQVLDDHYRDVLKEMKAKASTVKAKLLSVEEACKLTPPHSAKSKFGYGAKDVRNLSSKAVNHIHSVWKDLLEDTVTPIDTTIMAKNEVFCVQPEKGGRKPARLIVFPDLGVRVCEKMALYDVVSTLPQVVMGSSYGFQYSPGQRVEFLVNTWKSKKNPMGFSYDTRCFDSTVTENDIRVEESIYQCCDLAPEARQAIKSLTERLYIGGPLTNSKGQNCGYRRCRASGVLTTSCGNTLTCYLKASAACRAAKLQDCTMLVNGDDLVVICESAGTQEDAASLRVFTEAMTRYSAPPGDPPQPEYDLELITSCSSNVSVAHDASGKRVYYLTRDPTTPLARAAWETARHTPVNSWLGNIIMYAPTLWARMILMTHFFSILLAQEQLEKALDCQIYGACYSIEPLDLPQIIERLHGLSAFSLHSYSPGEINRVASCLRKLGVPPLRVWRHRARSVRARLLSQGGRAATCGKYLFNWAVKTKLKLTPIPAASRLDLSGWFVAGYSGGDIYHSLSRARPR
assay-info: HCV NS5B Polymerase Inhibition Assay
pIC50: −log10 of the molar value.

compound	tested-system	pIC50
O=C(O)c1c(-c2ccc[nH]c2=O)c2c3c(ccc2n1Cc1ccccc1F)OCCO3 [Compound 23]	HCV NS5B polymerase (Hepatitis C virus genotype 1b, UniProt P26663)	> 7.60
O=C(O)c1c(-c2ccc[nH]c2=O)c2c3ccccc3c(F)cc2n1Cc1cc([N+](=O)[O-])ccc1F [Compound 27]	HCV NS5B polymerase (Hepatitis C virus genotype 1b, UniProt P26663)	7.00 to 7.60
CS(=O)(=O)NC(=O)c1c(-c2ccc[nH]c2=O)c2c3ccccc3ccc2n1Cc1cccc(C(=O)O)c1 [Compound 12]	HCV NS5B polymerase (Hepatitis C virus genotype 1b, UniProt P26663)	> 7.60

Take each entry in turn and give its pIC50.
1. O=C(O)c1c(-c2ccc[nH]c2=O)c2c3ccccc3c(F)cc2n1Cc1ccccc1F [Compound 24]
2. O=C(NS(=O)(=O)C1CC1)c1c(-c2ccc[nH]c2=O)c2c3ccccc3c(F)cc2n1Cc1ccccc1F [Compound 31]
3. CS(=O)(=O)NC(=O)c1c(-c2ccc[nH]c2=O)c2c3c(ccc2n1Cc1cc(F)ccc1F)CCCO3 [Compound 29]
4. CS(=O)(=O)NC(=O)c1c(-c2ccc[nH]c2=O)c2c3c(ccc2n1Cc1ccccc1F)OCCO3 [Compound 28]

Result:
1: 7.00 to 7.60; 2: > 7.60; 3: > 7.60; 4: > 7.60
